B1: C10orf62 (parent)
chain: MLWVQRKRRRKETSECPSDKDKSP

# Variants of: B1
# experiment.summary: protein stability index of a GFP-peptide fusion (GPS, HEK-293T) (PSI 1-6); higher = more stable;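 note: lentivirally expressed fusions sorted by FACS into six bins by GFP to DsRed ratio, PSI derived from sequencing read proportions per bin multiplied by bin number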
# assay.setup: c terminus: a fixed tail appended
Below, each entry is listed with its recorded protein stability index.
Lab note: record the figure alone, no unit after it.

Some solved cases for reference:
S23C; 3.15
L2W; 2.53

Now let's try a different one.
So, `R6I` ? Its protein stability index was 3.21
